meta.source: ChEMBL document CHEMBL1157887

test system: Pseudomonas aeruginosa; test: Antibacterial activity against Pseudomonas aeruginosa by broth microdilution technique; assay type: functional
measured_endpoint: MIC

// known answers, use as guide
| compound | result |
| --- | --- |
| O=C(O)c1cn(C2CC2)c2nc(N3CCC(n4cc(/C=N/O)nn4)CC3)c(F)cc2c1=O | 32 µg/mL |
| CCO/N=C/c1cn(C2CCN(c3nc4c(cc3F)c(=O)c(C(=O)O)cn4C3CC3)CC2)nn1 | 32 µg/mL |
| O=C(O)c1cn(C2CC2)c2nc(N3CCC(n4cc(-c5ccccc5)nn4)CC3)c(F)cc2c1=O | > 32 µg/mL |
| CC(O)c1cn(C2CCN(c3nc4c(cc3F)c(=O)c(C(=O)O)cn4C3CC3)CC2)nn1 (stereo not given) | 32 µg/mL |

# input for lookup
Which MIC is reported for this compound? O=Cc1cn(C2CCN(c3nc4c(cc3F)c(=O)c(C(=O)O)cn4C3CC3)CC2)nn1
16 µg/mL

---

Measured MIC accompanies every entry in the list below.
system: Staphylococcus epidermidis; assay: Antibacterial activity against Staphylococcus epidermidis ATCC 12228 by broth microdilution technique; format: functional
Write the number in µg/mL without appending the unit.

| compound | uom | MIC |
| --- | --- | --- |
| NCc1cn(C2CCN(c3nc4c(cc3F)c(=O)c(C(=O)O)cn4C3CC3)CC2)nn1 | µg/mL | 32 |
| C=CCO/N=C/c1cn(C2CCN(c3nc4c(cc3F)c(=O)c(C(=O)O)cn4C3CC3)CC2)nn1 | µg/mL | 2 |
| CCO/N=C/c1cn(C2CCN(c3nc4c(cc3F)c(=O)c(C(=O)O)cn4C3CC3)CC2)nn1 | µg/mL | 1 |
| NC(=O)c1cn(C2CCN(c3nc4c(cc3F)c(=O)c(C(=O)O)cn4C3CC3)CC2)nn1 | µg/mL | 2 |
| O=C(O)c1cn(C2CC2)c2nc(N3CCC(n4cc(CO)nn4)CC3)c(F)cc2c1=O | µg/mL | 0.5 |
| COC(=O)c1cn(C2CCN(c3nc4c(cc3F)c(=O)c(C(=O)O)cn4C3CC3)CC2)nn1 | µg/mL | 1 |
| O=C(O)c1cn(C2CC2)c2cc(N3CCNCC3)c(F)cc2c1=O [CIPROFLOXACIN] | µg/mL | 0.5 |
| C#CCO/N=C/c1cn(C2CCN(c3nc4c(cc3F)c(=O)c(C(=O)O)cn4C3CC3)CC2)nn1 | µg/mL | 1 |

Which MIC is reported for this compound? O=C(O)c1cn(C2CC2)c2nc(N3CCC(n4cc(/C=N/OCc5ccccc5)nn4)CC3)c(F)cc2c1=O
1

# iterate: O=C(O)c1cn(C2CC2)c2nc(N3CCC(n4cc(/C=N/O)nn4)CC3)c(F)cc2c1=O
1
